- Test system: Colon cancer organoid
- test: Optimized Dual-Glo assay to identify co-culture induced drug vulnerabilities using donated chemical probes and chemogenomics kinase set in O14 CRC organoid and F14 CAF mono and co-culture. […] Cell viability is reported both mono and co-culture models.
- Type: functional, Homo sapiens
- Design: dose or concentration left out as unconfirmed
- condition_parameters: Culture type Mono-Culture; Transduced with Renilla-dsRed lentivirus
observed_property: Cell Viability (%)
Your answer should be a plain number; it is taken to be in %.

[in] Supply recorded Cell Viability for Cc1ccc(NC(=O)Nc2cc(C(F)(F)F)ccc2F)cc1Nc1ccc2c(c1)NC(=O)/C2=C\c1ccc[nH]1 here.
[out] 94.1932

[in] Return value of Cell Viability for input CC1=C(C(=O)Nc2cc3cn[nH]c3cc2F)C(c2ccc(C(F)(F)F)cc2)CC(=O)N1 (stereo not given) , no commentary.
[out] 103.404

[in] Report Cell Viability, nothing else, for this compound: C=CC(=O)Nc1cccc(C(=O)Nc2ccc(Nc3cc(-c4[nH]c(SC)nc4C)ccn3)cc2)c1
[out] 88.1867

[in] Output measured Cell Viability for this item: Cl.Cn1cncc1[C@](O)(COc1ccc(C#N)cc1-c1ccc(OC(F)(F)F)cc1)c1ccc(C#N)cc1
[out] 61.9663

[in] Input O=C(O)CNC(=O)c1c(O)c2ccccc2n(Cc2ccccc2)c1=O , output reported Cell Viability.
[out] 89.4149

[in] Using the record for CCc1cc(Nc2nccc(-c3c(-c4ccc(OC)c(C(=O)Nc5c(F)cccc5F)c4)nc4ccccn34)n2)c(OC)cc1N1CCC(N2CCN(S(C)(=O)=O)CC2)CC1 , state its measured Cell Viability.
[out] 95.6551

[in] Write down Cell Viability measured for item COc1cccc(CNC(=O)c2nc3scc(CN(C)Cc4ccccc4)c3c(=O)[nH]2)c1 [T-26f]
[out] 95.7877

[in] Name the recorded Cell Viability of the item O=c1nc(-c2ccccn2)sc2ccccc12 [BTZO-1] in your answer.
[out] 88.8475

[in] Output Cell Viability of Cc1cc(-n2nc(Cc3cc(F)cc(C(F)(F)F)c3)nc2C)ccc1C(N)=O [TP-024]
[out] 105.901

[in] Give the reported value of Cell Viability for this record: CCNC(=O)c1cc2c(-c3cc(C(C)(C)O)ccc3Oc3c(C)cc(F)cc3C)cn(C)c(=O)c2[nH]1 [ABBV-744]
[out] 212.265
